For each record, write down the corresponding % inhibition ApPOL 90'.
- System under test: P. falciparum apicoplast DNA polymerase (Pf-apPOL) (Plasmodium falciparum)
- Sequence (Q8ILY1 entry or part of it): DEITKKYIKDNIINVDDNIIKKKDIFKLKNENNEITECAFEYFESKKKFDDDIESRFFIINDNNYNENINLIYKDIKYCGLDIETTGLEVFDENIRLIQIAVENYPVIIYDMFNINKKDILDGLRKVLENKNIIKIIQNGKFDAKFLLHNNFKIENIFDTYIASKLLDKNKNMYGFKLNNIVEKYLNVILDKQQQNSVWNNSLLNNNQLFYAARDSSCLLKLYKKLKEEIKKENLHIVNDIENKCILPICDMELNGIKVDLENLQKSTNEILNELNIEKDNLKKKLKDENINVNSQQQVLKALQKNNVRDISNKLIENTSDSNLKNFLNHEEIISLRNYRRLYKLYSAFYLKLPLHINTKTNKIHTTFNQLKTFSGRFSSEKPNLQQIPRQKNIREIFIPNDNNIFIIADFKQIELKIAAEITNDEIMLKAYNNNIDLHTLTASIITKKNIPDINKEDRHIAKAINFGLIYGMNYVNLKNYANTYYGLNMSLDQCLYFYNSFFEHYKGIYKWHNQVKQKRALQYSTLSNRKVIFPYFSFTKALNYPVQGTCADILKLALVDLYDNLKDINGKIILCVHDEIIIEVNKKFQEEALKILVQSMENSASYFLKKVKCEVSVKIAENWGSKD
- Method notes: Fluorescence-based high-throughput DNA polymerase assay (molecular beacon), primary screen and dose-response;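 further: test concentration in µM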
- Format: biochemical
- Study conditions: DRC-2; 90'; conc 40

Name the reported % inhibition ApPOL 90' value associated with the compound "O=C(O)c1ccc(COc2cc([N+](=O)[O-])cc3cccnc23)cc1" 57%

Name the reported % inhibition ApPOL 90' value associated with the compound CCOc1nc2cccc(C(=O)OC(C)OC(=O)OC3CCCCC3)c2n1Cc1ccc(-c2ccccc2-c2nnn[nH]2)cc1 (stereo not drawn) 77%

Name the reported % inhibition ApPOL 90' value associated with the compound "Cc1ccc(N2NC(=O)/C(=C\c3ccc(O)c([N+](=O)[O-])c3)C2=O)cc1Cl" 65%

Name the reported % inhibition ApPOL 90' value associated with the compound "C=CC1=C(C)c2cc3[nH]c(cc4nc(cc5[nH]c(cc1n2)c(C)c5CCC(=O)O)C(CCC(=O)O)=C4C)c(C)c3C=C" 75%

Name the reported % inhibition ApPOL 90' value associated with the compound "O=c1nc(/C=C/c2ccc(Br)cc2)oc2ccccc12" 79%

Name the reported % inhibition ApPOL 90' value associated with the compound "Cc1cccc(C2=N/C(=C\c3ccc([N+](=O)[O-])o3)C(=O)O2)c1" 66%

Name the reported % inhibition ApPOL 90' value associated with the compound Cc1cccc(NC(=O)Cn2ccc3c(=O)[nH]ccc32)c1C [Molecule 11, O=C(Cn1ccc2c1cc[nH]c2=O)Nc1cccc(c1C)C] 73%

Name the reported % inhibition ApPOL 90' value associated with the compound "N#CC(C#N)=C1SCN(c2cccc(Cl)c2)CS1" 75%

Name the reported % inhibition ApPOL 90' value associated with the compound Cc1ccccc1NC(=O)Cn1ccc2c(=O)[nH]ccc21 [Molecule 50, O=C(Cn1ccc2c1cc[nH]c2=O)Nc1ccc(cc1)C] 75%

Name the reported % inhibition ApPOL 90' value associated with the compound "C=CCOc1c(Br)cc(Br)cc1/C=C1\SC(=N)NC1=O" 76%

Name the reported % inhibition ApPOL 90' value associated with the compound "Cc1ccc(CNC(=O)c2cnn3c(O)cc(CSc4ccc(Cl)cc4)nc23)cc1" 80%

Name the reported % inhibition ApPOL 90' value associated with the compound "O=C1Nc2ccc(I)cc2C1=Cc1cc(Br)c(O)c(Br)c1" 74%

Name the reported % inhibition ApPOL 90' value associated with the compound "CC(C)CCNC(=O)c1cnn2c(O)cc(CSc3ccc(Cl)cc3)nc12" 77%

Name the reported % inhibition ApPOL 90' value associated with the compound "Cc1ccc(NC(=O)Cn2ccc3c(=O)[nH]ccc32)c(C)c1" 71%

Name the reported % inhibition ApPOL 90' value associated with the compound "COC(=O)c1sc(-c2ccc(C(C)(C)C)cc2)cc1NC(=O)CCC(=O)O" 74%

Name the reported % inhibition ApPOL 90' value associated with the compound Cc1cc(C)c2c(c1)C1C=CCC1C(c1ccc(C(=O)O)cc1)N2 (stereo not drawn) 80%

Name the reported % inhibition ApPOL 90' value associated with the compound COc1ccccc1C1CC(=O)Oc2cc3c(cc21)OCO3 (stereo not drawn) 77%

Name the reported % inhibition ApPOL 90' value associated with the compound "O=C1NN(c2ccc(Cl)c(Cl)c2)C(=O)/C1=C/c1ccc(-c2ccc3c(c2)C(=O)OC3)o1" 67%
